Quick list: koff per entry.
# target: T1, GST-human NOGO-A56 (human)
# T1 construct: Expressed in E. coli BL21 from pGEX-6P1 and purified on glutathione-sepharose; the GST tag is part of the protein in the assays; also called GST-Nogo-A 5+6; GST Nogo-A 5 + 6
# T1 sequence (chain, as listed by the source limits assumed): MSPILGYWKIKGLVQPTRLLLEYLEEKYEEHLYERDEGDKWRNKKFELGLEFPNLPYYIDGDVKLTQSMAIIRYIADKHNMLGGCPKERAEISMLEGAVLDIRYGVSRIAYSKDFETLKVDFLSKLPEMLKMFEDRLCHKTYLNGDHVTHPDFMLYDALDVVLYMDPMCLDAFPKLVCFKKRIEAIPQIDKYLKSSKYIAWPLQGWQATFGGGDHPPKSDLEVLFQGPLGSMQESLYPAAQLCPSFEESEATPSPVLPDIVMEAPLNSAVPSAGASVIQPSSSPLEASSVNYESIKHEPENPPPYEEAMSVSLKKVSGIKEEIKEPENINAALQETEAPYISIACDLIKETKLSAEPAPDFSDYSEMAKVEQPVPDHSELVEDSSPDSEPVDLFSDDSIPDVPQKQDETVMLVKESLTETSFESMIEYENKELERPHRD
# test: SPR (Biacore) off-rate on NOGO chip, panel of H6FL CDR H3 variants with L13FL
Please give a number only; it is taken to be in s⁻¹.

Some solved cases for reference:
- binder: "H6L13 variant with VH CDR3 GSGY (antibody, human IgG1, kappa, V domains shown, Single point variant of H6FL with L13FL) VH: QVQLVQSGAEVKKPGASVKVSCKASGYTFTSYWMHWVRQAPGQGLEWIGNINPSNGGTNYNEKFKSRATMTRDTSTSTAYMELSSLRSEDTAVYYCELGSGYWGQGTLVTVSS VL: DIVMTQSPLSLPVTLGQPASISCRSSKSLLYKDGKTYLNWFQQRPGQSPQLLIYLMSTRASGVPDRFSGGGSGTDFTLKISRVEAEDVGVYYCQQLVEYPLTFGQGTKLEIKR"
  endpoint_value: 0.0207
- binder: "H6L13 variant with VH CDR3 RQGY (antibody, human IgG1, kappa, V domains shown, Single point variant of H6FL with L13FL) VH: QVQLVQSGAEVKKPGASVKVSCKASGYTFTSYWMHWVRQAPGQGLEWIGNINPSNGGTNYNEKFKSRATMTRDTSTSTAYMELSSLRSEDTAVYYCELRQGYWGQGTLVTVSS VL: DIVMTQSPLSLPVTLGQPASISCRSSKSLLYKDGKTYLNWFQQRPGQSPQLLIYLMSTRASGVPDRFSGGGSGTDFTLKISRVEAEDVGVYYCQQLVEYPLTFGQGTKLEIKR"
  endpoint_value: 0.0175
- binder: "H6L13 variant with VH CDR3 GAGY (antibody, human IgG1, kappa, V domains shown, Single point variant of H6FL with L13FL) VH: QVQLVQSGAEVKKPGASVKVSCKASGYTFTSYWMHWVRQAPGQGLEWIGNINPSNGGTNYNEKFKSRATMTRDTSTSTAYMELSSLRSEDTAVYYCELGAGYWGQGTLVTVSS VL: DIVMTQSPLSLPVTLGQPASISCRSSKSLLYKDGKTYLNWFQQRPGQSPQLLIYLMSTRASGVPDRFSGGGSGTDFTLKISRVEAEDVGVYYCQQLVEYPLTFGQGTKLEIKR"
  endpoint_value: 0.0315
- binder: "H6L13 variant with VH CDR3 GQNY (antibody, human IgG1, kappa, V domains shown, Single point variant of H6FL with L13FL) VH: QVQLVQSGAEVKKPGASVKVSCKASGYTFTSYWMHWVRQAPGQGLEWIGNINPSNGGTNYNEKFKSRATMTRDTSTSTAYMELSSLRSEDTAVYYCELGQNYWGQGTLVTVSS VL: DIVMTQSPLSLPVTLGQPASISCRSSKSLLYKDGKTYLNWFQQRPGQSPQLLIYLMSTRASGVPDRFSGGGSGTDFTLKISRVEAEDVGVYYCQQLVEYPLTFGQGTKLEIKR"
  endpoint_value: 0.00966

# input for lookup
In: Return koff for the following binder: H6L13 variant with VH CDR3 IQGY (antibody, human IgG1, kappa, V domains shown, Single point variant of H6FL with L13FL) VH: QVQLVQSGAEVKKPGASVKVSCKASGYTFTSYWMHWVRQAPGQGLEWIGNINPSNGGTNYNEKFKSRATMTRDTSTSTAYMELSSLRSEDTAVYYCELIQGYWGQGTLVTVSS VL: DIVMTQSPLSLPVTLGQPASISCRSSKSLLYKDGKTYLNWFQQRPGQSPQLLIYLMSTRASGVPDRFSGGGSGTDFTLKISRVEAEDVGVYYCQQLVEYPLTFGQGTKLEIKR
Out: 0.0172

The origin of these recorded values is patent US20130287781A1.
